Data credit: patent US10670605B2

Reported isoTOP-ABPP ratio (reactivity profile), P63244_C182 values for a set of compounds
Target: GNB2L1 C182 (P63244) (Homo sapiens, UniProt P63244)
Test: Competitive isoTOP-ABPP, cell lysates
Assay type: binding
Details: 500 μm in-vitro ramos_231
Measured Property: isoTOP-ABPP ratio (reactivity profile), P63244_C182

* O=C(CCl)N1CCN(CC(=O)N2CCOCC2)CC1 [compound 29] | 1.3
* O=C(CCl)N1CCOCC1 [compound 22] | 1.6
* CC(Cl)C(=O)Nc1cc(C(F)(F)F)cc(C(F)(F)F)c1 (stereo not shown) [compound 25] | 1.2
* COc1ccccc1OCCNC(=O)CCl [compound 28] | 1.0
* N#C/C(=C\c1cc(C(F)(F)F)cc(C(F)(F)F)c1)C(N)=O [compound 23] | 4.6
* O=C(CCl)NC12CC3CC(CC(C3)C1)C2 [compound 21] | 0.9
* O=C(CCl)N1CCC(C(O)(c2ccccc2)c2ccccc2)CC1 [compound 20] | 1.4

----------
Reported isoTOP-ABPP reactivity ratio, O00170_C122 values for a set of compounds
Target: AIP C122 (O00170) (Homo sapiens, UniProt O00170)
Assay: Competitive isoTOP-ABPP, cell lysates
Type: binding
Settings: 500 μm, in-vitro_ramos_231
Measured Property: isoTOP-ABPP reactivity ratio, O00170_C122

- CC(C)(C)c1cc(NC(=O)CCl)on1: 3.7
- C=CC(=O)Nc1cc(F)c(N2CCN(C(=O)OC(C)(C)C)CC2)c(F)c1: 1.5
- Cc1ccc(C=C(C#N)C(=O)NCCN2CCOCC2)cc1: 1.1
- O=C(CCl)N(Cc1ccc(F)cc1)C12CC3CC(CC(C3)C1)C2: 1.0

----------
Molecular target: UniProt:P09086
Assay: Competitive isoTOP-ABPP, cell lysates
Assay type: binding
Conditions: 500 μm in-vitro ramos
Measured Property: isoTOP-ABPP ratio (reactivity profile), P09086_C346

• CC(Br)C(=O)Nc1cc(C(F)(F)F)cc(C(F)(F)F)c1 (stereo not shown) = 1.1
• O=C(CCl)N1CCC(C(O)(c2ccccc2)c2ccccc2)CC1 = 2.3
• C=CC(=O)N(Cc1cccnc1)c1ccc(Oc2ccccc2)c(C(F)(F)F)c1 = 0.8
• N#C/C(=C\c1cc(C(F)(F)F)cc(C(F)(F)F)c1)C(N)=O = 1.1

----------
Reported isoTOP-ABPP reactivity ratio, P68036_C86 values for a set of molecules
Biological target: UBE2L3 C86 (P68036) (Homo sapiens, UniProt P68036)
Test: Competitive isoTOP-ABPP, cell lysates
Assay type: binding
Details: 500 μm, in-vitro_ramos_231
Measured Property: isoTOP-ABPP reactivity ratio, P68036_C86

* CC(C)(C)c1cc(NC(=O)CCl)on1 [compound 32] | 1.1
* C=CC(=O)Nc1cc(C)c(Br)cc1C [compound 40] | 0.8
* C=CC(=O)N(Cc1cccnc1)c1cc(C(F)(F)F)cc(C(F)(F)F)c1 [compound 31] | 1.7
* COC(=O)C1Cc2ccccc2CN1C(=O)CCl (centres unmarked) [compound 39] | 1.9
* Cc1ccc(C=C(C#N)C(=O)NCCN2CCOCC2)cc1 [compound 41] | 9.8

----------
Biological target: cysteines in MDA-MB-231 and Ramos cells (Homo sapiens)
Test: Competitive isoTOP-ABPP in situ (fragment-treated cells)
Assay type: cell-based
Details: 200 μM, insitu, 231
Reported isoTOP-ABPP ratio Q15118_C71 values for a set of compounds
Measured Property: isoTOP-ABPP ratio Q15118_C71

* O=C(CCl)NC12CC3CC(CC(C3)C1)C2 | 1.7
* O=C(CCl)NCCc1c[nH]c2ccccc12 | 1.6
* C=CC(=O)Nc1cc(F)c(N2CCN(C(=O)OC(C)(C)C)CC2)c(F)c1 | 1.3
* O=C(CCl)N1CCN(S(=O)(=O)c2ccccc2F)CC1 | 18.0
* CC1CCc2ccccc2N1C(=O)CCl (stereo not drawn) | 20.0
* CC(C)CCOCCNC(=O)CCl | 1.5
